- measured_target: human GR (Homo sapiens, UniProt P04150)
- Construct: naturally expresses the human GR; endogenous in cells
- Sequence (P04150 whole entry): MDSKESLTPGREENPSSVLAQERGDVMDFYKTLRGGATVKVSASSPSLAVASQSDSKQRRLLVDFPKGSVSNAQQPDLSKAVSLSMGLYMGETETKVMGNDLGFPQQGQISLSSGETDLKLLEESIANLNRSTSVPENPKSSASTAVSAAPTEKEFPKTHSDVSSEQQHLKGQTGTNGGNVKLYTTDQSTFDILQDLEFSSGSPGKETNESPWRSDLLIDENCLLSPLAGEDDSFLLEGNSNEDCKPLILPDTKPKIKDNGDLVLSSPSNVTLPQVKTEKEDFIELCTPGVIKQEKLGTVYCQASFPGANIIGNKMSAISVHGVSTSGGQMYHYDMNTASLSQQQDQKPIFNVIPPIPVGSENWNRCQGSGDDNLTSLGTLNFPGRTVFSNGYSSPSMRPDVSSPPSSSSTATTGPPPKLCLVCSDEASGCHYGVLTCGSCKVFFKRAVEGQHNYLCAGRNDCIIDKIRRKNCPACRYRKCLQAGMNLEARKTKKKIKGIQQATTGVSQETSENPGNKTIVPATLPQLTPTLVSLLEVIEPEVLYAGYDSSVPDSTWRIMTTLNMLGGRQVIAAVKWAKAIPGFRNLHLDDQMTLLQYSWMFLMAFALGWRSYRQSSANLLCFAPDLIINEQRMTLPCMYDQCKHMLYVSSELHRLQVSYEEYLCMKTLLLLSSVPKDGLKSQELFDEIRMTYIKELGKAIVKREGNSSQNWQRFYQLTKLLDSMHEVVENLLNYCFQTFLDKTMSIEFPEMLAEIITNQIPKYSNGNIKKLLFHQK
- experiment_description: Transrepression assay (GITAR), TNFα-β-lactamase reporter in U937 cells
- Type: cell-based
- applied_conditions: U-937, U937 cells; activity repressed by 100 nM dexamethasone alone set as 100%
measurement_type: Emax (%)

molecule	Emax [%]
NS(=O)(=O)c1ccccc1CC[C@]1(O)CCC2=Cc3c(cnn3-c3cccnc3)C[C@@]21C1CC1 [Example 24]	83
CCS(=O)(=O)c1ccccc1CC[C@]1(O)CCC2=Cc3c(cnn3-c3ccc(F)cc3)C[C@@]21C1CC1 [Example 59]	88
CC[C@]12Cc3cnn(-c4ccc(F)cc4)c3C=C1CC[C@@]2(O)CCc1cncc(F)c1 [Example 21]	87
CC[C@]12Cc3cnn(-c4ccc(F)cc4)c3C=C1CC[C@@]2(O)CCc1nccc(OC)c1C(F)C(N)=O (stereo partly shown) [Example 65]	63
NC(=O)CNC(=O)c1cc(F)cnc1CC[C@]1(O)CCC2=Cc3c(cnn3-c3ccc(F)cc3)C[C@@]21C1CC1 [Example 44]	86
Cc1ccnc(CC[C@]2(O)CCC3=Cc4c(cnn4-c4ccc(F)cc4)C[C@@]32C2CC2)c1 [Example 36]	72
COc1ccnc(CC[C@]2(O)CCC3=Cc4c(cnn4-c4ccc(F)cc4)C[C@@]32C2CC2)c1C(N)=O [Example 54]	77
CC[C@]12Cc3cnn(-c4ccc(F)cc4)c3C=C1CC[C@@]2(O)CC(O)c1ccccn1 (stereo partly shown) [Example 68]	71
NC(=O)c1cc(F)cnc1CC[C@]1(O)CCC2=Cc3c(cnn3-c3ccc(F)cc3)C[C@@]21C1CC1 [Example 4]	71
CC[C@]12Cc3cnn(-c4ccc(F)cc4)c3C=C1CC[C@@]2(O)CCc1ccccc1C(O)C(N)=O (stereo partly shown) [Example 25]	74
NC(=O)[C@H](F)c1c(F)cccc1CC[C@]1(O)CCC2=Cc3c(cnn3-c3ccc(F)cc3)C[C@@]21C1CC1 [Example 57]	86
CC[C@]12Cc3cnn(-c4ccc(F)cc4)c3C=C1CC[C@@]2(O)CCc1nccc(C2CC2)c1C(=O)OC [Example 41]	79
O=C(NCCO)c1ccccc1CC[C@]1(O)CCC2=Cc3c(cnn3-c3ccc(F)cc3)C[C@@]21C1CC1 [Example 50]	88
NC(=O)c1c(C(F)(F)F)ccnc1CC[C@]1(O)CCC2=Cc3c(cnn3-c3ccc(F)cc3)C[C@@]21C1CC1 [Example 55]	87
CC[C@]12Cc3cnn(-c4ccc(F)cc4)c3C=C1CC[C@@]2(O)CCc1cccc(OC)c1C(N)=O [Example 37]	90
CC[C@]12Cc3cnn(-c4ccc(F)cc4)c3C=C1CC[C@@]2(O)CCc1ccccc1CCC(N)=O [Example 22]	89
CC[C@]12Cc3cnn(-c4ccc(F)cc4)c3C=C1CC[C@@]2(O)CCc1ccccn1 [Example 16]	79
CC[C@]12Cc3cnn(-c4ccc(F)cc4)c3C=C1CC[C@@]2(O)CC(O)c1cncc(F)c1 (stereo partly shown) [Example 73]	71
NC(=O)CNC(=O)c1ccccc1CC[C@]1(O)CCC2=Cc3c(cnn3-c3ccc(F)cc3)C[C@@]21C1CC1 [Example 47]	83
N#Cc1ccccc1CC[C@]1(O)CCC2=Cc3c(cnn3-c3ccccc3)C[C@@]21C1CC1 [Example 27]	86
CC[C@]12Cc3cnn(-c4ccc(F)cc4)c3C=C1CC[C@@]2(O)CC(O)c1ccc(F)cn1 (single isomer, unassigned) [Example 69a]	74
CC[C@]12Cc3cnn(-c4ccc(F)cc4)c3C=C1CC[C@@]2(O)CCc1ncccc1F [Example 17]	89
CC[C@]12Cc3cnn(-c4ccccc4)c3C=C1CC[C@@]2(O)CC(O)c1cc(C#N)ccn1 (stereo partly shown) [Example 75]	67
CC[C@]12Cc3cnn(-c4ccc(F)cc4)c3C=C1CC[C@@]2(O)CCc1ccc(F)cc1C(N)=O [Example 8]	88
CC[C@]12Cc3cnn(-c4cccnc4)c3C=C1CC[C@@]2(O)CCc1ccccc1C#N [Example 5]	80
